- SUBJECT_OF_TEST: human TLR9 (Homo sapiens)
- Sequence (Q9NR96 26-1032): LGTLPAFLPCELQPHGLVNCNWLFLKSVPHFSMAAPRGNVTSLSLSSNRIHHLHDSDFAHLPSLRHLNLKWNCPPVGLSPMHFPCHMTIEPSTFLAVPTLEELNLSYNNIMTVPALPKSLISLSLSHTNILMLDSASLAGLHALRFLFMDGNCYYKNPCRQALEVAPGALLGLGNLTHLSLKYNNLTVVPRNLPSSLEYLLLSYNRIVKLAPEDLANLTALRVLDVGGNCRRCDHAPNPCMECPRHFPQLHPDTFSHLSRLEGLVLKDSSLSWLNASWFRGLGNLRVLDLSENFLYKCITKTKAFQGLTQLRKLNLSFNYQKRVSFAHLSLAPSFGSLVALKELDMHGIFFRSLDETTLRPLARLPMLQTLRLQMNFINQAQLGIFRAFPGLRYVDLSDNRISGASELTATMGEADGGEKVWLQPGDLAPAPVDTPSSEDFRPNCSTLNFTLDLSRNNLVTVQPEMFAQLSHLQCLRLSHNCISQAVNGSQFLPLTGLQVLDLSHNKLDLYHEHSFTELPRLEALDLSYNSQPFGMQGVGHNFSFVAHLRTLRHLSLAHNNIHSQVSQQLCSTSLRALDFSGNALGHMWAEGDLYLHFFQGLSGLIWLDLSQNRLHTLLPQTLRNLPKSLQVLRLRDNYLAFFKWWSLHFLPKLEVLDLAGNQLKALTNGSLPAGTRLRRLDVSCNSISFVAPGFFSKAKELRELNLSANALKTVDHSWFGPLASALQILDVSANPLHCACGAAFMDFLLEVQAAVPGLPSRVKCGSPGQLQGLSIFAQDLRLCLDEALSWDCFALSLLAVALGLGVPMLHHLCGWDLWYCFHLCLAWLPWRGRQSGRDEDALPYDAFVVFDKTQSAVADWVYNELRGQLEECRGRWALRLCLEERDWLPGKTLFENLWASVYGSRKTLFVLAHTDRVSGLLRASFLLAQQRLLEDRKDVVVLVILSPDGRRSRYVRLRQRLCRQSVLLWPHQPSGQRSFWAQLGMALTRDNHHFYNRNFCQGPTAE
- METHOD_NOTES: TLR9 inhibition reporter assay (HEK-Blue cells, SEAP reporter, ODN2006 stimulation)
- CONDITIONS: HEK-Blue cells overexpressing human TLR9, SEAP reporter, ODN2006 5 nM
pIC50: −log10 of the molar value.
PROPERTY_NAME: pIC50

Illustrative cases are given below, each with its answer.
COMPOUND: CC(C)c1c(-c2ccnc3[nH]cnc23)[nH]c2ccc(C3CCNCC3)cc12
pIC50: 6.00 to 7.00
//
COMPOUND: CNC(=O)CN1CCC(c2ccc3[nH]c(-c4cnc5c(cnn5C)c4)c(C(C)C)c3c2)CC1
pIC50: 4.30 to 6.00
//
COMPOUND: Cc1cc(-c2[nH]c3ccc(C4CCN(CC(=O)N(C)C)CC4)cc3c2C(C)C)nc2scnc12
pIC50: 4.30 to 6.00

Prompt: Can you share its pIC50? I mean this compound: CC(C)c1c(-c2cc3cn[nH]c3cn2)[nH]c2ccc(C3CCNCC3)cc12
Completion: 4.30 to 6.00

Prompt: What does the record list as pIC50 for CCN(CC)C(=O)C1CCCN(CC(=O)N2CCC(c3ccc4[nH]c(-c5ccnc6[nH]ccc56)c(C(C)C)c4c3)CC2)C1 (stereo not shown) [Example 568] ?
Completion: 4.30 to 6.00

Prompt: Would you kindly share the measured pIC50 for Cc1cn2cc(-c3[nH]c4ccc(C5CCN(C(=O)CN(C)C)CC5)cc4c3CC(F)F)ccc2n1 ?
Completion: 6.00 to 7.00

Prompt: Value lookup for pIC50; key = CC(C)c1c(-c2ccnc3[nH]ncc23)[nH]c2ccc(C3CCN(C(=O)c4cn[nH]c4)CC3)cc12
Completion: 4.30 to 6.00

Prompt: // returns reported pIC50 for input CCc1c(-c2cnc3ncccn23)[nH]c2ccc(C3CCNCC3)cc12
Completion: 6.00 to 7.00

Prompt: For Cc1cc(-c2[nH]c3ccc(C4CCN(C(=O)CN(C)C)CC4)cc3c2C(C)C)cn2cc(C(=O)N(C)CCO)nc12 , what is its reported pIC50?
Completion: 4.30 to 6.00

Prompt: What value of pIC50 has been recorded for this entry: CC(C)c1c(-c2ccn3nccc3n2)[nH]c2ccc(C3CCNCC3)cc12
Completion: 4.30 to 6.00

Prompt: Consider the compound shown here: CC(C)c1c(-c2ccnc3[nH]ncc23)[nH]c2cc(F)c(C3CCNCC3)cc12 What is its recorded pIC50?
Completion: 6.00 to 7.00

Prompt: // pIC50 lookup, key: CC(C)c1c(-c2ccn3nnnc3c2)[nH]c2ccc(C3CCNCC3)cc12
Completion: 4.30 to 6.00

Prompt: If you can, please state the reported pIC50 value of CNC(=O)CN1CCC(c2ccc3[nH]c(-c4cc(C)n5nccc5c4)c(C(C)C)c3c2)CC1 .
Completion: 4.30 to 6.00
